Tested on: NIH3T3
Assay: qHTS assay to identify novel small-molecules to repurpose for Merkel cell carcinoma treatment (AID 1296009); further: nearly all actives have a fitted effect of over 60% in size
Settings: MCC and control cell lines, CellTiter-Glo viability, 72 h; at 44.8 µM (top of the series) unless noted
Results filed as inconclusive are left out. Activity calls are given as the source filed them. The call rests on the fitted dose curve; in most records, active means well fitted inhibition curve with a large enough effect; inconclusive means small, poorly fitted or top-dose-only effect; inactive means flat fitted curve, though single readings scatter. Where a SMILES comes first, the peptide text is derived from it. [ ]: non-standard residue; d: D form.
quantity measured: outcome

molecule="CC(=O)O[C@H](C[C@@H](C)[C@H]1C(=O)[C@H](O)[C@@]2(C)[C@@H]3CCC4C(C)(C)[C@@H](O[C@@H]5OC[C@H](O)[C@H](O)[C@H]5O)CC[C@@]45C[C@@]35CC[C@]12C)[C@@H]1OC1(C)C (stereo partly drawn)" value_measured="inactive [at 17.4 µM]"
molecule=CO[C@@H](Cc1ccc(OCCc2nc(-c3ccccc3)oc2C)c2ccsc12)C(=O)O value_measured=inactive
molecule="CC1CCC2C(C)(C)C(O)CCC2(C)C12Cc1c(O)cc3c(c1O2)CN=C3N (stereo not drawn)" value_measured=inactive
molecule=COc1cc(/C=C/c2cc(O)cc(O[C@@H]3O[C@H](CO)[C@@H](O)[C@H](O)[C@H]3O)c2)ccc1O value_measured="inactive [at 17.4 µM]"
molecule="NC1CCC(N[C@@H]2C[C@H]2c2ccccc2)CC1 (stereo partly drawn)" value_measured=inactive
molecule=CN(C)c1cccc(-c2c3c(=O)n(-c4ccccc4Cl)[nH]c3cc(=O)n2C)c1 value_measured=inactive
molecule="COc1cc(C2c3cc(O)c(OC)cc3CC(CO)C2CO)ccc1O (stereo not drawn)" value_measured=inactive
molecule=COc1ccccc1[C@@H]1C2=C(CC(C)(C)CC2=O)Nc2n[nH]c(C(F)(F)F)c21 value_measured=inactive
molecule=COC(=O)c1cc(CN2CCN(C(=N)N)CC2)cc(C(=O)N2CCN(C(=O)c3ccc(C(=N)N)cc3)CC2)c1 value_measured=inactive
molecule=CC(/C=C/[C@]1(O)[C@@]2(C)CO[C@@]1(C)C[C@@H](O)C2)=C\C(=O)O[C@@H]1O[C@H](CO)[C@@H](O)[C@H](O)[C@H]1O value_measured="inactive [at 17.4 µM]"
molecule=CC/C=C\C[C@H]1C(=O)C=C[C@@H]1CCCCCCCC(=O)O value_measured=inactive
molecule=CN1C(=O)c2ccccc2-n2c(nc3ccccc3c2=O)[C@@]12O[C@H]2c1ccccc1 value_measured=inactive
molecule="C/C=C/C1=CC2=CC(=O)C(C)(O)C(OC(=O)c3c(C)cc(O)cc3O)C2CO1 (stereo not drawn)" value_measured=inactive
molecule=C=C1CC[C@@H]2[C@](C)(CO[C@@H]3O[C@H](CO)[C@@H](O)[C@H](O)[C@H]3O)CCC[C@@]2(C)[C@@H]1CCC1=CCOC1=O value_measured="inactive [at 17.4 µM]"
molecule="COc1cc(COC2OC(CO)C(O)C(O)C2O)cc(OC)c1O (stereo not drawn)" value_measured=inactive
molecule=OC[C@H]1O[C@@H](n2cnc3c(NCc4ccc(O)cc4)ncnc32)[C@H](O)[C@@H]1O value_measured=inactive
molecule="CC1=CCC2C(C)(CO)CCCC2(C)C1CC12OC1C(O)C(CO)=CC2O (stereo not drawn)" value_measured=inactive
molecule="CCC(C)C(=O)O[C@@H]1[C@@H](O)[C@@H](O[C@H]2O[C@H](CO)[C@@H](O)[C@H](O)[C@H]2O)O[C@H](CO)[C@H]1O (stereo partly drawn)" value_measured="inactive [at 17.4 µM]"
molecule="C[C@H]1[C@H](C)CC[C@]2(C(=O)O)CC[C@]3(C(=O)O)C(=CCC4[C@@]5(C)CC[C@H](O[C@@H]6O[C@H](C)[C@@H](O)[C@H](O)[C@H]6O)C(C)(C)C5CC[C@]43C)[C@H]12 (stereo partly drawn)" value_measured="inactive [at 17.4 µM]"
molecule=C=C1CC[C@@H]2[C@](C)(CC[C@H](O)[C@@]2(C)CCC=C(C)C)[C@@H]1Cc1c[nH]c2ccccc12 value_measured="inactive [at 17.4 µM]"
molecule=CC(C)NC[C@H](O)COc1ccc(CCOCC2CC2)cc1 value_measured=inactive
molecule=C=C[C@H]1[C@H](O[C@@H]2O[C@H](CO[C@@H]3OC[C@](O)(CO)[C@H]3O)[C@@H](O)[C@H](O)[C@H]2O)OC=C2C(=O)OCC[C@H]21 value_measured="inactive [at 17.4 µM]"
molecule="CC(=O)N[C@H](Cc1ccc(O)cc1)C(=O)N[C@H](CCCN=C(N)N)C(=O)N[C@H](Cc1ccccc1)C(N)=O (Ac-[dY]-[dR]-[dF]-NH2)" value_measured=inactive
